Examples of compounds with documented pKi follow.
# assay-system: HCV genotype 1b (BK) NS3 modified enzyme with a R155K mutation (Hepatitis C virus genotype 1b, UniProt P26663, R1181K)
# Construct: HCV genotype 1b (BK) NS3 modified enzyme
# test-details: HCV NS3 protease time-resolved fluorescence (TRF) assay, genotype 1b R155K
# Format: biochemical
# setup-conditions: Ki 1b R155K, genotype 1b (BK) NS3 R155K; single value
Friendly reminder that pKi comes from taking -log10 of the concentration in mol/L.

Worked cases, answers included:
Query block: Please report the recorded pKi for C=C[C@@H]1C[C@]1(NC(=O)[C@@H]1C[C@@H]2CN1C(=O)[C@H](C(C)(C)C)NC(=O)O[C@@H]1CCC[C@H]1CCCCCc1c(nc3ccccc3c1OCCN1CCOCC1)O2)C(=O)NS(=O)(=O)C1(C)CC1 .
Result block: 9.37

Query block: Please report the recorded pKi for C=C[C@@H]1C[C@]1(NC(=O)[C@@H]1C[C@@H]2CN1C(=O)[C@H](C(C)(C)C)NC(=O)O[C@@H]1C[C@H]1CCCCCc1c(nc3ccccc3c1OCCCN1CCCC1=O)O2)C(=O)NS(=O)(=O)C1(C)CC1 .
Result block: 10.18

Query block: Please report the recorded pKi for C=C[C@@H]1C[C@]1(NC(=O)[C@@H]1C[C@@H]2CN1C(=O)[C@H](C1CCCCC1)NC(=O)O[C@@H]1C[C@H]1CCCCCc1c(nc3ccccc3c1OCCCN1CCC(F)(F)CC1)O2)C(=O)NS(=O)(=O)C1(C)CC1 .
Result block: 8.96

---
Query block: Please report the recorded pKi for C=C[C@@H]1C[C@]1(NC(=O)[C@@H]1C[C@@H]2CN1C(=O)[C@H](C1CCCC1)NC(=O)O[C@@H]1CCC[C@H]1CCCCCc1c(nc3ccccc3c1OCCN1CC3CCC1C3)O2)C(=O)NS(=O)(=O)C1CC1 .
Result block: 9.21

Query block: Please report the recorded pKi for C=CC1C[C@]1(NC(=O)[C@@H]1C[C@@H]2CN1C(=O)[C@H](C1CCCC1)NC(=O)O[C@@H]1CCC[C@H]1CC/C=C/Cc1c(nc3ccccc3c1OCCCN1CCC1)O2)C(=O)NS(=O)(=O)C1(C)CC1 (some centres unmarked) .
Result block: 9.96

Query block: Please report the recorded pKi for C=C[C@@H]1C[C@]1(NC(=O)[C@@H]1C[C@@H]2CN1C(=O)[C@H](C(C)(C)C)NC(=O)O[C@@H]1CCC[C@H]1CCCCCc1c(nc3ccccc3c1OCCN(C)C)O2)C(=O)NS(=O)(=O)C1(COC)CC1 .
Result block: 9.46

Query block: Please report the recorded pKi for C=C[C@@H]1C[C@]1(NC(=O)[C@@H]1C[C@@H]2CN1C(=O)[C@H](C1CCCC1)NC(=O)O[C@@H]1CCC[C@H]1CCCCCc1c(nc3ccccc3c1OC)O2)C(=O)NS(=O)(=O)C1CC1 .
Result block: 9.48

Query block: Please report the recorded pKi for C=C[C@@H]1C[C@]1(NC(=O)[C@@H]1C[C@@H]2CN1C(=O)[C@H](C(C)(C)C)NC(=O)O[C@@H]1C[C@H]1CCCCCc1c(nc3ccccc3c1OCCCNC1CCC1)O2)C(=O)NS(=O)(=O)C1(C)CC1 .
Result block: 10.43

Query block: Please report the recorded pKi for C=C[C@@H]1C[C@]1(NC(=O)[C@@H]1C[C@@H]2CN1C(=O)[C@H](C1CCCC1)NC(=O)O[C@@H]1CCC[C@H]1CC/C=C/Cc1c(nc3ccccc3c1O)O2)C(=O)NS(=O)(=O)C1(C)CC1 .
Result block: 9.96

Query block: Please report the recorded pKi for C=C[C@@H]1C[C@]1(NC(=O)[C@@H]1C[C@@H]2CN1C(=O)[C@H](C(C)(C)C)NC(=O)O[C@]1(C)C[C@H]1CCCCCc1c(nc3ccccc3c1OCCN1CCOCC1)O2)C(=O)NS(=O)(=O)C1CC1 .
Result block: 9.62

====

Examples of compounds with documented pKi follow.
# assay-system: HCV genotype 1b (BK) NS3 modified enzyme with a R155K mutation (Hepatitis C virus genotype 1b, UniProt P26663, R1181K)
# Construct: HCV genotype 1b (BK) NS3 modified enzyme
# test-details: HCV NS3 protease time-resolved fluorescence (TRF) assay, genotype 1b R155K
# Type: biochemical
# setup-conditions: Ki 1b R155K, genotype 1b (BK) NS3 R155K; single value
Friendly reminder that pKi comes from taking -log10 of the concentration in mol/L.

Query block: Please report the recorded pKi for C=C[C@@H]1C[C@]1(NC(=O)[C@@H]1C[C@@H]2CN1C(=O)[C@H](C(C)(C)C)NC(=O)O[C@@H]1C[C@H]1CCCCCc1c(nc3ccccc3c1OCCCNCCc1cccc3ccccc13)O2)C(=O)NS(=O)(=O)C1(C)CC1 .
Result block: 10.09

Query block: Please report the recorded pKi for C=C[C@@H]1C[C@]1(NC(=O)[C@@H]1C[C@@H]2CN1C(=O)[C@H](C(C)(C)C)NC(=O)O[C@@H]1CCC[C@H]1CCCCCc1c(nc3ccccc3c1OCCCN(C)C)O2)C(=O)NS(=O)(=O)C1(COC)CC1 .
Result block: 10.10

Query block: Please report the recorded pKi for C=C[C@@H]1C[C@]1(NC(=O)[C@@H]1C[C@@H]2CN1C(=O)[C@H](C1CCCCC1)NC(=O)O[C@@H]1C[C@H]1CCCCCc1c(nc3ccccc3c1OCCCN1CC[C@@H](O)C1)O2)C(=O)NS(=O)(=O)C1(C)CC1 .
Result block: 10.38

API: the following record is the query input.
Query block: Please report the recorded pKi for C=C[C@@H]1C[C@]1(NC(=O)[C@@H]1C[C@@H]2CN1C(=O)[C@H](C1CCCC1)NC(=O)O[C@@H]1CCC[C@H]1CC/C=C/Cc1c(nc3ccccc3c1OCC)O2)C(=O)NS(=O)(=O)C1CC1 .
Result block: 9.60

====

# assay-system: HCV genotype 1b (BK) NS3 modified enzyme with a R155K mutation (Hepatitis C virus genotype 1b, UniProt P26663, R1181K)
# Construct: HCV genotype 1b (BK) NS3 modified enzyme
# test-details: HCV NS3 protease time-resolved fluorescence (TRF) assay, genotype 1b R155K
# Type: biochemical
# setup-conditions: Ki 1b R155K, genotype 1b (BK) NS3 R155K; single value
measured-endpoint: Ki (nM)
Lab book: enter the figure in nM, no units written.

Query block: Please report the recorded Ki for C=C[C@@H]1C[C@]1(NC(=O)[C@@H]1C[C@@H]2CN1C(=O)[C@H](C1CCCC1)NC(=O)O[C@@H]1CCC[C@H]1CC/C=C/Cc1c(nc3ccccc3c1OCCN1CC3(CCC3)C1)O2)C(=O)NS(=O)(=O)C1(C)CC1 [Example 86] .
Result block: 0.23

Query block: Please report the recorded Ki for C=C[C@@H]1C[C@]1(NC(=O)[C@@H]1C[C@@H]2CN1C(=O)[C@H](C(C)(C)C)NC(=O)O[C@@H]1C[C@H]1CCCCCc1c(nc3ccccc3c1OCCCN(C)Cc1n[nH]c(=O)[nH]1)O2)C(=O)NS(=O)(=O)C1(C)CC1 [Example 199] .
Result block: 0.057

Query block: Please report the recorded Ki for C=C[C@@H]1C[C@]1(NC(=O)[C@@H]1C[C@@H]2CN1C(=O)[C@H](C(C)(C)C)NC(=O)O[C@@H]1CCC[C@H]1CCCCCc1c(nc3ccccc3c1OCCN1CCOCC1)O2)C(=O)NS(=O)(=O)N1CCOCC1 [Example 112] .
Result block: 24

Query block: Please report the recorded Ki for C=C[C@@H]1C[C@]1(NC(=O)[C@@H]1C[C@@H]2CN1C(=O)[C@H](C1CCCC1)NC(=O)O[C@@]1(C)C[C@@H]1CC/C=C/Cc1c(nc3ccccc3c1O)O2)C(=O)NS(=O)(=O)C1CC1 [Example 20] .
Result block: 0.55

Query block: Please report the recorded Ki for C=C[C@@H]1C[C@]1(NC(=O)[C@@H]1C[C@@H]2CN1C(=O)[C@H](C(C)(C)C)NC(=O)O[C@@H]1C[C@H]1CCCCCc1c(nc3ccccc3c1OCCN1CCS(=O)(=O)CC1)O2)C(=O)NS(=O)(=O)C1(C)CC1 [Example 176] .
Result block: 0.1

Query block: Please report the recorded Ki for C=C[C@@H]1C[C@]1(NC(=O)[C@@H]1C[C@@H]2CN1C(=O)[C@H](C(C)(C)C)NC(=O)O[C@@H]1C[C@H]1CCCCCc1c(nc3ccccc3c1OCCCNC(C)C)O2)C(=O)NS(=O)(=O)C1(C)CC1 [Example 185] .
Result block: 0.032

Query block: Please report the recorded Ki for C=C[C@@H]1C[C@]1(NC(=O)[C@@H]1C[C@@H]2CN1C(=O)[C@H](C(C)(C)C)NC(=O)O[C@@H]1C[C@H]1CCCCCc1c(nc3ccccc3c1OCCCN1CCN(C)CC1)O2)C(=O)NS(=O)(=O)C1(C)CC1 [Example 131] .
Result block: 0.11

Query block: Please report the recorded Ki for C=C[C@@H]1C[C@]1(NC(=O)[C@@H]1C[C@@H]2CN1C(=O)[C@H](C1CCCC1)NC(=O)O[C@@H]1CCC[C@H]1CCC/C=C/Cc1c(nc3ccccc3c1O)O2)C(=O)NS(=O)(=O)C1CC1 [Example 18] .
Result block: 0.79

API: the following record is the query input.
Query block: Please report the recorded Ki for C=C[C@@H]1C[C@]1(NC(=O)[C@@H]1C[C@@H]2CN1C(=O)[C@H](C(C)(C)C)NC(=O)O[C@@H]1C[C@H]1CCCCCc1c(nc3ccccc3c1OCCCNC(C)COC)O2)C(=O)NS(=O)(=O)C1(C)CC1 (stereo partly drawn) [Example 179] .
Result block: 0.034

Each recorded value in this set is attributed to patent US9328138B2.
